# test.target: HLA-A*02:16
# protocol: IEDB peptide-MHC binding, purified MHC/direct/fluorescence; filed as Kd, often an IC50 or EC50 that approximates it; bounds were set here for any values at or beyond the usual limits of such assays
# details: source organism: Toxoplasma gondii
observed.property: Kd

The sequence `LPPVVPPLI` on HLA-A*02:16: Kd was ≥ 20 µM

----------
# test.target: HLA-A*03:01
# protocol: IEDB peptide-MHC binding, purified MHC/competitive/radioactivity; filed as Kd, often an IC50 or EC50 that approximates it; bounds were set here for any values at or beyond the usual limits of such assays
# details: source organism: Dengue virus 4 Philippines/H241/1956
observed.property: Kd (nM)
Write the value in nM as a bare number.

The recorded Kd for entry `ALTLHWFRK` equals 15

----------
# test.target: HLA-A*26:02
# protocol: IEDB peptide-MHC binding, purified MHC/direct/fluorescence; filed as Kd, often an IC50 or EC50 that approximates it; bounds were set here for any values at or beyond the usual limits of such assays
# details: source organism: Kurkino virus
pKd: −log10 of the molar value.
observed.property: pKd

// pKd lookup, sequence = `ETVEWALKF` , result: ≥ 9.00

----------
# test.target: HLA-B*58:01
# protocol: IEDB peptide-MHC binding, purified MHC/competitive/fluorescence; filed as Kd, often an IC50 or EC50 that approximates it; bounds were set here for any values at or beyond the usual limits of such assays
# details: source organism: Bacillus anthracis str. A0488
observed.property: pKd
pKd is defined as minus the log10 of a concentration measured in mol/L.

Lookup result for `MSLMTGEQF` ; measured pKd: 7.78

----------
# test.target: HLA-A*68:02
# protocol: IEDB peptide-MHC binding, purified MHC/competitive/fluorescence; filed as Kd, often an IC50 or EC50 that approximates it; bounds were set here for any values at or beyond the usual limits of such assays
# details: source organism: Fowlpox virus
observed.property: Kd

Reported Kd (HLA-A*68:02) for entry `VIMWYNYLF` is ≥ 20 µM

----------
# test.target: HLA-B*40:01
# protocol: IEDB peptide-MHC binding, purified MHC/competitive/fluorescence; filed as Kd, often an IC50 or EC50 that approximates it; bounds were set here for any values at or beyond the usual limits of such assays
# details: source organism: Influenza A virus (A/parakeet/Chiba/1/97(H9N2))
observed.property: pKd
pKd is a log-scale quantity: -log10 of the concentration expressed in molar.

The sequence `VETYVLSII` showed pKd equal to 7.89

----------
# test.target: HLA-B*15:01
# protocol: IEDB peptide-MHC binding, purified MHC/competitive/fluorescence; filed as Kd, often an IC50 or EC50 that approximates it; bounds were set here for any values at or beyond the usual limits of such assays
# details: source organism: Giardia lamblia ATCC 50803
pKd: −log10 of the molar value.
observed.property: pKd

Value (pKd, HLA-B*15:01) for record `TEDDWITYI` = ≤ 4.70

Test item `NAMGADYYA` ; HLA-B*15:01; reported pKd was ≤ 4.70

----------
# test.target: HLA-B*44:03
# protocol: IEDB peptide-MHC binding, purified MHC/competitive/radioactivity; filed as Kd, often an IC50 or EC50 that approximates it; bounds were set here for any values at or beyond the usual limits of such assays
# details: source organism: Mammarenavirus lassaense
observed.property: Kd

Looking up `HDLMKQKCL` , I see its Kd listed as ≥ 78.1 µM
